B1: CPEB3 Ribozyme (parent)
chain: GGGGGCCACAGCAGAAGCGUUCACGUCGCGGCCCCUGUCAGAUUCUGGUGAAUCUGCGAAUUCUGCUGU

Variants of: B1
Experiment: self-cleavage, relative activity (ratio to wild type); higher = more cleavage; co-transcriptional
Documented self-cleavage across a set of variants
quantity: self-cleavage

GGGGGCCACAGCAGAAGCGUUCACGUCGCGGCCCCUGUUAGAUUCUGGUGAAUCCGCGAAUUCUGCUGU: 0.752
GGGGGCCACAGCAGAAGCGUUCACAUCGCGGCCCCUGUCAGAUUCUGGUGAAUCUGCGACUUCUGCUGU: 0.142
GGGGGCCACAUCAGCAGCGUUCACGUCGCGGCCCCUGUCAGAUUCUGGUGAAUCUGCGAAUUCUGCUGU: 0.531
GGGGGCCACAGCAGAAUCGUUCACGUCGCGGCCCCUGUCAGAUUCUGGUGAAUCUGCGAAUUCUGCAGU: 0.513
GGGGGCCACAGCAGAAGCGUUCACGUCGCCGCCCCCGUCAGAUUCUGGUGAAUCUGCGAAUUCUGCUGU: 0.273
GGGGGCCACAGCAGAAGCUUUCACGUCGCCGCCCCUGUCAGAUUCUGGUGAAUCUGCGAAUUCUGCUGU: 0.186
GGGGGCCACAGCAGAAGCGUUCACGUCGCGGCCCCUGUCAGAUUCUGGUGAAUCUGGGAAUUCUGGUGU: 0.39
GGGGGCCACAGCAGAAGCGUUCACGUCACGGCCCCUGUCAGAUUCUGUUGAAUCUGCGAAUUCUGCUGU: 0.19
GGGGGCCACAGCAGAAGCGUUCACGUCGCGGCCCCUGUCUGAUUCUGGUGAAUCUGAGAAUUCUGCUGU: 0.333
GGGGGCCAAAGCAGAAGCGUUCACGUCGCGGCCCCUGUCAGAUUCUGGUGAAUCUGCGAAUUCUGCUGU: 1.03
GGGGGCCACAGCAGAAGCGUCCAAGUCGCGGCCCCUGUCAGAUUCUGGUGAAUCUGCGAAUUCUGCUGU: 0.376
GGGGGCCACAGCAGAAGCGUUCACGUCGCGGUCCCUGUCAGAUUCUGGUGAAUCUGCCAAUUCUGCUGU: 0.963
GGGGGCCACAGCAGAAGCGUUCACGUCGCGGCCCCUAUCAUAUUCUGGUGAAUCUGCGAAUUCUGCUGU: 0.219
GGGGGCCACAGCAGAAGCGUUCACGUCGCGGCCCCUGUCAUAUUCUGGUGAAUCUGCGUAUUCUGCUGU: 0.453
GGGGGCCACAUCAGAAGCGUUCACGUCGCGGCCCCUGUCACAUUCUGGUGAAUCUGCGAAUUCUGCUGU: 0.197
GGGGGCCACAGCAGAAGCGUUCACGUCGCGGCCCCUGUCAGAUUCUGGUGAAUCUCCGAAUUCUCCUGU: 0.57
GGGGGCCACAGCAGAAGCAUUCACGUCGCGGCCCUUGUCAGAUUCUGGUGAAUCUGCGAAUUCUGCUGU: 0.188
GGGGGCCACAGCAGAAGCGUUCACGUCGCGGCCCCUGUCUGAUUCUGGUGAAUCUGUGAAUUCUGCUGU: 0.302
GGGGGCCACAGCAGAAGCGUUCACGACGAGGCCCCUGUCAGAUUCUGGUGAAUCUGCGAAUUCUGCUGU: 0.46
GGGGGCCACAGCAGCAGCCUUCACGUCGCGGCCCCUGUCAGAUUCUGGUGAAUCUGCGAAUUCUGCUGU: 0.214
GGGGGCCACAGCAGAAGCGUUCACGUCGCGGCCCCUGUCAGAUUCUGGUGAAUCUGCGAAUUUUUCUGU: 0.772
GGGGGCCACAGCAGAAGCGUUCACGUCGCGGACCCUGUCAGAUCCUGGUGAAUCUGCGAAUUCUGCUGU: 0.482
GGGAGCCACAGCAGAAGCGUUCACGUCGCGGCCCCUGUCAGAUUCUGGUGAAUCCGCGAAUUCUGCUGU: 0.351
GGGGGCCACAACAGAAGCGUUCACGUCGCGGCCCCUGUCAGAUUCUGGUGAAUCUGCGCAUUCUGCUGU: 0.3
